# measured-on: human mGluR5 (Homo sapiens)
# assay: Cell-based functional Ca2+ mobilization assay, potentiation of glutamate EC20 response (H10H cell-line)
# condition-parameters: H10H cell-line expressing recombinant human mGluR5; in presence of glutamate EC20; normalized to maximal glutamate response
endpoint-name: Emax (%)
The figure you give is taken to be in %; do not add the unit.

Cc1ccc(OCc2nc3c(o2)CN(C(=O)c2ccc(F)cc2)CC3)cc1: 56

Problem: Input O=C(c1ccc(F)cn1)N1CCc2nc(COc3ccccc3)oc2C1 , output reported Emax.
Solution: 67

Problem: Input CC(C)(C)[C@H](N)C(=O)N1CCc2nc(COc3ccccc3)oc2C1 , output reported Emax.
Solution: 24

Problem: Input N#Cc1ccccc1C(=O)N1CCc2nc(COc3ccccc3)oc2C1 , output reported Emax.
Solution: 63

Problem: Input CC(C)(C#N)C(=O)N1CCc2nc(COc3ccccc3)oc2C1 , output reported Emax.
Solution: 34

###

endpoint-name: melting point (°C)
The figure you give is taken to be in °C; do not add the unit.

// worked examples, melting point included
O=C(c1ccc(F)cc1F)N1CCc2nc(COc3cccc(F)c3)oc2C1: 90.1
O=C(c1ccc(F)cn1)N1CCc2nc(COc3ccccc3)oc2C1: 113.1
N#Cc1cc(C(=O)N2CCc3nc(COc4ccccc4)oc3C2)ccc1F: 128.2

Problem: Input O=C(c1cncc(F)c1)N1CCc2nc(COc3ccccc3)oc2C1 , output reported melting point.
Solution: 98.3

Problem: Input Cc1oncc1C(=O)N1CCc2nc(COc3ccccc3)oc2C1 , output reported melting point.
Solution: 158.2

Problem: Input CN(C)c1cccc(C(=O)N2CCc3nc(COc4ccccc4)oc3C2)c1 , output reported melting point.
Solution: 102.9

###

# measured-on: human mGluR5 (Homo sapiens, UniProt P41594)
# Sequence (P41594 21-1180 isoform P41594-2 limits assumed): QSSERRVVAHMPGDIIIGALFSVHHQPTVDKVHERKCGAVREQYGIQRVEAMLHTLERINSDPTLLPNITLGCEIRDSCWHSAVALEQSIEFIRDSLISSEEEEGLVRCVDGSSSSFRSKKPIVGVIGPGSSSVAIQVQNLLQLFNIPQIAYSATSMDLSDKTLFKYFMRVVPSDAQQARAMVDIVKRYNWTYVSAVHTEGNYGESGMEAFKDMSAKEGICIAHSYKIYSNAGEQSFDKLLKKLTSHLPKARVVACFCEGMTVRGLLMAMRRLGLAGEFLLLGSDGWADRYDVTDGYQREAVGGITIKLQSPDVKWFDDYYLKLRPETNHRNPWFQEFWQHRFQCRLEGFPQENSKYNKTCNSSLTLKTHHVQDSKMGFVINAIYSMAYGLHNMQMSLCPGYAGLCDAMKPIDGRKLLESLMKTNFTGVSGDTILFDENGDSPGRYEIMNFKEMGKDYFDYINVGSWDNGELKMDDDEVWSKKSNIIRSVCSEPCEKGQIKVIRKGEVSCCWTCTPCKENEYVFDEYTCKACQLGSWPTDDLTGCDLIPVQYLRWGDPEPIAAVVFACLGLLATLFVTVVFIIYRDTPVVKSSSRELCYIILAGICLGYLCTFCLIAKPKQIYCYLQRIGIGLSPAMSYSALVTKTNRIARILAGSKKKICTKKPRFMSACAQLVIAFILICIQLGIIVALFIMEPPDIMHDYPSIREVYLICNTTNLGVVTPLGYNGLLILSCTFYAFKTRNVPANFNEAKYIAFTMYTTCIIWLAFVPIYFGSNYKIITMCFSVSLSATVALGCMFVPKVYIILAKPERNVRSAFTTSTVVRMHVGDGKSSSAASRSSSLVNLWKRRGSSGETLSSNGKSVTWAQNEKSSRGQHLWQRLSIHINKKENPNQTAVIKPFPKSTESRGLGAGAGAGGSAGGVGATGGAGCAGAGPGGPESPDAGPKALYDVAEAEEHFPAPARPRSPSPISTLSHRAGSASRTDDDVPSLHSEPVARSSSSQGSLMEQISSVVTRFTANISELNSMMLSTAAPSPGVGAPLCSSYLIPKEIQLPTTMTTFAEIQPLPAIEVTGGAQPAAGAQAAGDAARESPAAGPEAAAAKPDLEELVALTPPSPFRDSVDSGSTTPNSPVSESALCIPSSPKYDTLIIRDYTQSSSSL
# assay: Cell-based functional Ca2+ mobilization assay, potentiation of glutamate EC20 response (H10H cell-line)
# condition-parameters: H10H cell-line expressing recombinant human mGluR5; in presence of glutamate EC20; normalized to maximal glutamate response
Below, each of the compounds is paired with its reported Emax value.
The figure you give is taken to be in %; do not add the unit.

// worked examples, Emax included
CC(Oc1ccccc1)C(=O)N1CCc2nc(COc3ccccc3)oc2C1 (stereo not drawn): 63
O=C(c1ccc(F)cc1)N1CCc2nc(COc3ccc(Br)cc3)oc2C1: 27
Cc1cccc(OCc2nc3c(o2)CN(C(=O)c2ccc(F)cc2)CC3)n1: 32
O=C(c1ccnnc1)N1CCc2nc(COc3ccccc3)oc2C1: 44

Problem: Input O=C(c1ccc(F)cc1F)N1CCc2nc(COc3ccccc3)oc2C1 , output reported Emax.
Solution: 92

Problem: Input Cc1ncc(C(=O)N2CCc3nc(COc4ccccc4)oc3C2)cn1 , output reported Emax.
Solution: 36

Problem: Input O=C(c1c[nH]cn1)N1CCc2nc(COc3ccccc3)oc2C1 , output reported Emax.
Solution: 26

Problem: Input O=C(c1cccc(F)c1)N1CCc2nc(COc3ccc(F)cc3)oc2C1 , output reported Emax.
Solution: 60.5

Problem: Input O=C(c1ccc(F)cc1)N1CCc2nc(COc3cccc(C(F)(F)F)c3)oc2C1 , output reported Emax.
Solution: 40

###

# measured-on: human mGluR5 (Homo sapiens, UniProt P41594)
# assay: Cell-based functional Ca2+ mobilization assay, potentiation of glutamate EC20 response (H10H cell-line)
# condition-parameters: H10H cell-line expressing recombinant human mGluR5; in presence of glutamate EC20; normalized to maximal glutamate response
# Description: Human embryonic kidney (HEK) cells transfected with rat mGluR5 were plated in clear bottom assay plates for assay in a Functional Drug Screening System (FDSS). In the alternative assay, HEK cells transfected with human mGluR5 were plated for assay in the FDSS. […] After establishment of a fluorescence baseline for about three seconds, the compounds of the present invention were added to the cells, and the response in cells was measured. […]
Below, each of the compounds is paired with its reported Emax (%) value.
The figure you give is taken to be in %; do not add the unit.

O=C(c1ccc(F)c(F)c1)N1CCc2nc(COc3cccc(F)c3)oc2C1: 75
CC(C)(C)OC(=O)NC(C(=O)N1CCc2nc(COc3ccccc3)oc2C1)C(C)(C)C (stereo not drawn): 58

Note: attention shifts to another entry.
Problem: Fill in: Emax (%) on human mGluR5 (Homo sapiens, UniProt P41594), entry O=C(c1ccc(S(F)(F)(F)(F)F)cc1)N1CCc2nc(COc3ccccc3)oc2C1
Solution: 51
